tested on: DU-145 prostate; experiment: NCI tumour cell line growth inhibition, 48 h
Where a SMILES comes first, the peptide text is derived from it. [ ]: non-standard residue; d: D form. The star is where a group is joined. Phe(4-NO2) = N[CH](Cc1ccc([N+](=O)[O-])cc1)C(=O)O; Boc = CC(C)(C)OC(=O)*; OtBu = CC(C)(C)O*
Here, each record is paired with measured TGI data.

Inquiry: Which TGI is reported for this compound? COc1ccc2c(c1)OCC1c3cc(O)ccc3OC21 (stereo unspecified)
Reply text: > 100 µM

Inquiry: Consider the compound shown here: CC(C)CCC[C@@H](C)[C@H]1CCC2C3=CCn4c(=O)ccc(=O)n4C3CC[C@@]21C (stereo partly specified) What is its recorded TGI?
Reply text: 2.52 µM

Inquiry: What does the record list as TGI for CC1CC2=C(C1)C(C1(C)C(=O)CC3C(C1=O)C3(C)C)C(C)C2=O (stereo unspecified) ?
Reply text: > 100 µM

Inquiry: Using the record for C=CS(=O)(=O)c1c2cc(OC)ccc2nc2ccc(OC)cc12 , report its TGI.
Reply text: 19.8 µM

Inquiry: Fill in the blank: the reported TGI of CCc1c2c(nc3ccc(OC(=O)NCc4ccc(B5OC(C)(C)C(C)(C)O5)cc4)cc13)-c1cc3c(c(=O)n1C2)COC(=O)[C@]3(O)CC is ____.
Reply text: > 100 µM

Inquiry: Tell me the measured TGI of O=c1ssc2ncccc12 , please.
Reply text: > 100 µM

Inquiry: GET /values?readout=TGI&item= CCCCCC(/C=C/C1CCC(=O)C1)OCOCCOC (stereo unspecified)
Reply text: > 100 µM

Inquiry: I am curious: what TGI value has been reported for O=C1/C(=C/c2ccc(O)c(O)c2)COc2ccc(-c3ccccc3)cc21 ?
Reply text: 4.48 µM

Inquiry: Entry C/C=C(\C)C(=O)O[C@H]1C=CC(=O)O[C@H]1CC[C@H](O)[C@H](C)O : reported TGI = ?
Reply text: 27 µM

Inquiry: I am curious: what TGI value has been reported for CC1=CC(=O)C(=C(C)C)CC1 ?
Reply text: > 100 µM

Inquiry: TGI for CC(=O)NC(CCC(=O)OC(C)(C)C)C(=O)NC(CCC(=O)OC(C)(C)C)C(=O)NC(Cc1ccc([N+](=O)[O-])cc1)C(=O)NC(CCCCNC(=O)OC(C)(C)C)C(=O)NC(CCCCNC(=O)OC(C)(C)C)C(=O)NCC(=O)O (stereo unspecified) (Ac-E(OtBu)E(OtBu)[Phe(4-NO2)]K(Boc)K(Boc)G-OH; configuration not given here) ?
Reply text: > 100 µM

###

In this section, each of the compounds is paired with its reported TGI.
test system: XF 498 CNS; assay: NCI tumour cell line growth inhibition, 48 h
Just the number in µM, nothing appended.

Past entries and their recorded results:
CN1C(=O)CC2(C)c3cc(O)ccc3N(C)C12 (stereo not drawn) = 33
CC(C)(C)c1cc(Cc2ccc([N+](C)(C)C)cc2)c(O)c(C(C)(C)C)c1 = 25.9
COc1ccc2nc(C)cc(NCCCCCCCCCNc3cc(C)nc4ccc(OC)cc34)c2c1 = 3.69

Inquiry: Entry CC(C)c1cccc(C(C)C)c1NC(=S)N=Nc1cc(C(C)(C)C)c(O)c(C(C)(C)C)c1 has what TGI?
Reply text: 43.3

Inquiry: Field request: TGI | item: COc1ccc(/C(Cl)=C(\C=O)c2ccc(Cl)c(Cl)c2)cc1
Reply text: 24.3

Inquiry: Any idea what TGI was measured for CCCCCCCCCCCc1noc2c1C(=O)C(O)CC2 (stereo not drawn) ?
Reply text: 27

Inquiry: Given the compound CC(=O)CC(=O)Nc1c(C)[c]([Hg][O]C(C)=O)c(C)[c]([Hg][O]C(C)=O)[c]1[Hg][O]C(C)=O , what is its reported TGI?
Reply text: 15.6

This collection of values is drawn from PubChem BioAssay (NCI).
